System: UniProt:Q2KJ64 | Read-out: IC50
Sequence (Q2KJ64 whole entry): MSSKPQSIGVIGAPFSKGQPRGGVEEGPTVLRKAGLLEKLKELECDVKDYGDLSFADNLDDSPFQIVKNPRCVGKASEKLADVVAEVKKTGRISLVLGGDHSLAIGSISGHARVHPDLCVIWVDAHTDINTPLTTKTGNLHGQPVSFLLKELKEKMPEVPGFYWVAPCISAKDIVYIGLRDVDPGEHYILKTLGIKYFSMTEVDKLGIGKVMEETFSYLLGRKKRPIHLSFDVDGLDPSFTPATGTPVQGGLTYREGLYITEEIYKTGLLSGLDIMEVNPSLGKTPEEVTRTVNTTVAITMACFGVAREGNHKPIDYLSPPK
PROPERTY_LABEL: IC50 (µM)

>>> df
                                   compound  property_label  value_units  recorded_number
0      O=C1/C(=C/c2cccc(O)c2)Oc2c1ccc(O)c2O            IC50           µM              120
1       O=C(/C=C/c1ccc(O)cc1)c1ccc(O)c(O)c1            IC50           µM              302
2  O=C1/C(=C/c2cc(O)c(O)c(O)c2)Oc2c1ccc(O)c2O            IC50           µM              287
3  O=C(/C=C/c1ccc(O)c(O)c1)c1c(O)cc(O)cc1O [3,4,2',4',6'-PENTAHYDROXYCHALCONE]            IC50           µM               98
